Each item that follows carries a reported efflux ratio.
test: in vitro; conditions: dog, MDCK
Description: Efflux ratio of apparent permeability in dog MDCK-II cells

Solved entries:
- cpd_smiles: "C[C@H]1O[C@@H](O[C@H]2[C@@H](O)C[C@H](O[C@H]3[C@@H](O)C[C@H](O[C@H]4CC[C@@]5(C)[C@H](CC[C@@H]6[C@@H]5C[C@@H](O)[C@]5(C)[C@@H](C7=CC(=O)OC7)CC[C@]65O)C4)O[C@@H]3C)O[C@@H]2C)C[C@H](O)[C@@H]1O"
  efflux ratio: 30.3
- cpd_smiles: "COc1cc2nc(N3CCN(C(=O)c4ccco4)CC3)nc(N)c2cc1OC"
  efflux ratio: 1.9

Please turn your attention to the following entry.
Report efflux ratio for C=C[C@H]1C[N@@]2CC[C@H]1C[C@@H]2[C@@H](O)c1ccnc2ccc(OC)cc12 please.
6.6

* * *

Each item that follows carries a reported Ratio IC50.
species on record: Rattus norvegicus; assay: Selectivity index, ratio of IC50 for ALR1 in Wistar rat kidney to IC50 for ALR2 in Wistar rat lens
Give the figure by itself; no unit, no explanation.

Solved entries:
- cpd_smiles: "CCCCNC(=O)CN1C(=O)S/C(=C\\c2ccc(OC)cc2)C1=O"
  property_name: "Ratio IC50"
  quantitative_result: 0.8
- cpd_smiles: "O=C(CN1C(=O)S/C(=C\\c2ccc(O)cc2)C1=O)Nc1ccccc1"
  property_name: "Ratio IC50"
  quantitative_result: 1.3
- cpd_smiles: "CCCCNC(=O)CN1C(=O)S/C(=C\\c2ccc(O)cc2)C1=O"
  property_name: "Ratio IC50"
  quantitative_result: 8.5
- cpd_smiles: "COc1ccc(NC(=O)CN2C(=O)S/C(=C\\c3ccc(O)cc3)C2=O)cc1"
  property_name: "Ratio IC50"
  quantitative_result: 3.2
- cpd_smiles: "CCc1ccccc1NC(=O)CN1C(=O)S/C(=C\\c2ccc(O)cc2)C1=O"
  property_name: "Ratio IC50"
  quantitative_result: 1.5
- cpd_smiles: "O=C(CN1C(=O)S/C(=C\\c2ccc(O)cc2)C1=O)Nc1ccc(F)cc1"
  property_name: "Ratio IC50"
  quantitative_result: 5.4

Report Ratio IC50 for CCN(CC)C(=O)CN1C(=O)S/C(=C\c2ccc(O)cc2)C1=O please.
9.4

Report Ratio IC50 for O=C(CN1C(=O)S/C(=C\c2cccc(O)c2)C1=O)NCc1ccccc1 please.
8.6

* * *

assay: in vitro; details: dog, MDCK
Description: Apparent permeability of the compound across apical side to basolateral side in dog MDCK-II cells incubated for 150 mins by LC-MS/MS analysis
Each item that follows carries a reported Papp A→B at 2.5 h.
Record the value in ×10⁻⁶ cm/s, omitting the unit from your answer.

- cpd_smiles: "COc1cc2nc(N3CCN(C(=O)c4ccco4)CC3)nc(N)c2cc1OC"
  Papp A→B at 2.5 h, ×10⁻⁶ cm/s: 6.85

Report Papp A→B at 2.5 h for C=C[C@H]1C[N@@]2CC[C@H]1C[C@@H]2[C@@H](O)c1ccnc2ccc(OC)cc12 please.
3.27

Report Papp A→B at 2.5 h for C[C@H]1O[C@@H](O[C@H]2[C@@H](O)C[C@H](O[C@H]3[C@@H](O)C[C@H](O[C@H]4CC[C@@]5(C)[C@H](CC[C@@H]6[C@@H]5C[C@@H](O)[C@]5(C)[C@@H](C7=CC(=O)OC7)CC[C@]65O)C4)O[C@@H]3C)O[C@@H]2C)C[C@H](O)[C@@H]1O please.
0.19

* * *

Each item that follows carries a reported efflux ratio.
experiment: in vitro; settings: human, Caco-2
Description: Efflux ratio of apparent permeability in human Caco-2 cells
Give the figure by itself; no unit, no explanation.

- molecule: "O=c1[nH]c2ccccc2n1CCCN1CCC(n2c(=O)[nH]c3cc(Cl)ccc32)CC1"
  efflux ratio: 12.2

Report efflux ratio for NC(=O)N1c2ccccc2C=Cc2ccccc21 [CARBAMAZEPINE] please.
0.9
